- System: 624824-186-R-J2-PDC multicell spheroids, viability
- assay_explanation: Anticancer human tumor 624824-186-R-J2-PDC patient-derived colon adenocarcinoma cell line growth inhibition [PI3K]
- run_conditions: curve of first compound; second compound 0.316 µM
pIC50: −log10 of the molar value.
assay_readout: pIC50

Need pIC50 of Cn1nccc1Nc1nccc(-c2ccn(C(CO)c3ccc(Cl)c(F)c3)c(=O)c2)n1 (stereo unspecified) + COc1c(OCCCN2CCOCC2)ccc2c3n(c(=NC(=O)c4cnc(N)nc4)nc12)CCN3 , thanks.
7.27

C#Cc1c(F)ccc2cc(O)cc(-c3ncc4c(N5CC6CCC(C5)N6)nc(OCC56CCCN5CC(F)C6)nc4c3F)c12 (stereo unspecified) + COc1c(OCCCN2CCOCC2)ccc2c3n(c(=NC(=O)c4cnc(N)nc4)nc12)CCN3 , same question.
< 5.00

Cn1ncc(Cl)c1-c1cc(C(=O)NC(CN)Cc2cccc(F)c2)sc1Cl (stereo unspecified) + CC(Nc1ccc2c(c1)OCCn1cc(N3C(=O)OCC3C(F)F)nc1-2)C(N)=O , same question.
< 5.00

Cn1cnc2c(F)c(Nc3ccc(Br)cc3Cl)c(C(=O)NOCCO)cc21 + COc1c(OCCCN2CCOCC2)ccc2c3n(c(=NC(=O)c4cnc(N)nc4)nc12)CCN3 , same question.
> 8.02

CC(C)NCC(C(=O)N1CCN(c2ncnc3c2C(C)CC3O)CC1)c1ccc(Cl)cc1 (stereo unspecified) + CC(Nc1ncnc2nc[nH]c12)c1cc2cccc(Cl)c2c(=O)n1-c1ccccc1 , same question.
< 5.00

CC(=O)c1c(C)c2cnc(Nc3ccc(N4CCNCC4)cn3)nc2n(C2CCCC2)c1=O + CC(Nc1ncnc2nc[nH]c12)c1cc2cccc(Cl)c2c(=O)n1-c1ccccc1 , same question.
< 7.00

====

- Test system: 624824-186-R-J2-PDC multicell spheroids, viability
- assay_explanation: Anticancer human tumor 624824-186-R-J2-PDC cell line growth inhibition [PI3K];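 note: spheroids exposed to agents for 7 days before viability read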;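 for viability, T/C: 100% = DMSO vehicle treated spheroids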
- run_conditions: second compound 0.316 µM; first compound 0.000316 µM; stronger effect = lower value
Label key: Fulfilled means viability, T/C under 90%; Not fulfilled means viability, T/C of 90% or more.

Does the reported viability, T/C of the following compound sit strictly below 90%? Cn1ncnc1[C@H]1c2n[nH]c(=O)c3cc(F)cc(c23)N[C@@H]1c1ccc(F)cc1 + CC(Nc1ncnc2nc[nH]c12)c1cc2cccc(Cl)c2c(=O)n1-c1ccccc1
Not fulfilled

Cn1ncnc1[C@H]1c2n[nH]c(=O)c3cc(F)cc(c23)N[C@@H]1c1ccc(F)cc1 + COc1c(OCCCN2CCOCC2)ccc2c3n(c(=NC(=O)c4cnc(N)nc4)nc12)CCN3 , same question.
Fulfilled

Cn1ncnc1[C@H]1c2n[nH]c(=O)c3cc(F)cc(c23)N[C@@H]1c1ccc(F)cc1 + Cc1nc(NC(=O)N2CCCC2C(N)=O)sc1-c1ccnc(C(C)(C)C(F)(F)F)c1 , same question.
Not fulfilled

CC(=O)c1c(C)c2cnc(Nc3ccc(N4CCNCC4)cn3)nc2n(C2CCCC2)c1=O + COc1c(OCCCN2CCOCC2)ccc2c3n(c(=NC(=O)c4cnc(N)nc4)nc12)CCN3 , same question.
Fulfilled

====

- System: 624824-186-R-J2-PDC multicell spheroids, viability
- assay_explanation: Anticancer human tumor 624824-186-R-J2-PDC cell line growth inhibition [PI3K];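 note: spheroids exposed to agents for 7 days before viability read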;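 for viability, T/C: 100% = DMSO vehicle treated spheroids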
- run_conditions: second compound 0.00316 µM; first compound 1 µM; stronger effect = lower value
assay_readout: viability, T/C (%)
Field format: number, assumed %, no unit text.

Need viability, T/C of Cn1ncc(Cl)c1-c1cc(C(=O)NC(CN)Cc2cccc(F)c2)sc1Cl (stereo not drawn) + CC(Nc1ccc2c(c1)OCCn1cc(N3C(=O)OCC3C(F)F)nc1-2)C(N)=O , thanks.
87.1

CC(Cn1ccc(-c2ccc(C#N)c(Cl)c2)n1)NC(=O)c1cc(C(C)O)[nH]n1 (stereo not drawn) + COc1c(OCCCN2CCOCC2)ccc2c3n(c(=NC(=O)c4cnc(N)nc4)nc12)CCN3 , same question.
98.5

CC(C)NCC(C(=O)N1CCN(c2ncnc3c2C(C)CC3O)CC1)c1ccc(Cl)cc1 (stereo not drawn) + COc1c(OCCCN2CCOCC2)ccc2c3n(c(=NC(=O)c4cnc(N)nc4)nc12)CCN3 , same question.
89.2
